All figures here come from patent US20190367520A1.

For each of the compounds below, state its IC50.
biological target: FGFR4 kinase domain recombinant protein (Homo sapiens); assay: FGFR4 enzyme activity at molecular level (ELISA, Poly(Glu,Tyr) 4:1 substrate)
Sequence (P22455 467-755 limits assumed): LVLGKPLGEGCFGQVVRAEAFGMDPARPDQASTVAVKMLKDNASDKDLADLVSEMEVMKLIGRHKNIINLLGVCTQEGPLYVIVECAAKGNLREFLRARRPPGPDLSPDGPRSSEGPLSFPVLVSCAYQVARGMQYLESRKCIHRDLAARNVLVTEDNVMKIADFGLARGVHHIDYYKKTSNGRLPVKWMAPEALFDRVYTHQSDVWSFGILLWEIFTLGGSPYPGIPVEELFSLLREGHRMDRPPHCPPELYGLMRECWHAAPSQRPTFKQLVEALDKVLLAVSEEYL

INPUT: Fill in the recorded IC50 for this compound, with FGFR4 kinase domain recombinant protein (Homo sapiens) as test system: `C=CC(=O)N1CC[C@H](n2nc(-c3cc4cc(C)cc(OC)c4s3)c3c(N)ncnc32)C1`
OUTPUT: < 0.01 µM

INPUT: Lab note: need IC50 with FGFR4 kinase domain recombinant protein (Homo sapiens) for entry C=CC(=O)N1CCC(n2cc(-c3cc4cc(C)cc(OC)c4s3)c3c(N(C)C)ncnc32)C1 (stereo not shown) , please look it up.
OUTPUT: > 0.1 µM

INPUT: Fill in the recorded IC50 for this compound, with FGFR4 kinase domain recombinant protein (Homo sapiens) as test system: COc1cc(C)cc2cc(-c3nn(C4CCN(C(=O)CCl)C4)c4ncnc(N)c34)sc12 (stereo not shown)
OUTPUT: > 0.1 µM

INPUT: For the record `C=C(CN1CCOCC1)C(=O)N1CC[C@H](n2nc(-c3cc4cc(C)cc(OC)c4s3)c3c(N)ncnc32)C1` , what value of IC50 is listed for FGFR4 kinase domain recombinant protein (Homo sapiens)?
OUTPUT: 0.01 to 0.1 µM

INPUT: Param readout= IC50; system= FGFR4 kinase domain recombinant protein (Homo sapiens); entry= `C=CC(=O)Nc1cccc(Cn2nc(-c3cc4cc(C)cc(OC)c4s3)c3c(N)ncnc32)c1` ; returns value.
OUTPUT: 0.01 to 0.1 µM

INPUT: Write down the reported IC50 of COc1cc(C)cc2cc(-c3cn(C4CCN(C(=O)C(C#N)=CC5CC5)C4)c4ncnc(N)c34)sc12 (stereo not shown) , test system: FGFR4 kinase domain recombinant protein (Homo sapiens).
OUTPUT: < 0.01 µM

INPUT: Return IC50 measured with FGFR4 kinase domain recombinant protein (Homo sapiens) given this compound: `C=CC(=O)N1CC[C@H](n2cc(-c3cc4cc(C)cc(OC)c4s3)c3c(N)ncnc32)C1`
OUTPUT: < 0.01 µM
